Target: human mGluR4 transiently over-expressed in HEK-293 cells (Homo sapiens)
Assay: Human mGluR4 positive allosteric modulator evaluation using Ca++ functional assay
Details: HEK-293 cells co-transfected with hmGluR4 and chimeric G protein; EC10 glutamate; intracellular calcium (Fluo4AM); read-out: mean EC50 of agonist/positive allosteric modulator activity on mGluR4
pEC50: −log10 of the molar value. Where a name gives a salt, the structure may show the parent alone.
// pEC50 lookup, one value per entry

Solved entries:
COMPOUND | RESULT
ON=c1cc(-c2cc3cccn3cn2)oc2ccc(OCCN3CCC(C(F)(F)F)CC3)cc12 [Example 113, hydrochloride] | > 6.00
Cl.ON=c1cc(-c2cc3sccc3cn2)oc2ccc(OCCCc3cccnc3)cc12 [Example 135, hydrochloride] | > 6.00
ON=c1cc(-c2cc3cccn3cn2)oc2ccc(OCCc3ccc(F)cc3)cc12 [Example 109, hydrochloride] | > 6.00
COc1ccc2c(=NO)cc(-c3cc4ccccc4cn3)oc2c1 (mixture of isomers) | > 5.30
Cl.ON=c1cc(-c2cc3sccc3cn2)oc2ccc(OCCN3CCC(F)(F)C3)cc12 [Example 133, hydrochloride] | > 6.00
Cl.ON=c1cc(-c2cc3cccn3cn2)oc2ccc(OCCN3CCCC(F)(F)C3)cc12 [Example 114, hydrochloride] | > 6.00
ON=c1cc(-c2cc3ccccc3cn2)oc2cc(C#Cc3ccncc3)ccc12 (mixture of isomers) | > 5.30
Cl.ON=c1cc(-c2cc3cccn3cn2)oc2ccc(OCCN3CCC(F)(F)C3)cc12 [Example 119, hydrochloride] | > 6.00

Record request: pEC50 value, item Cl.Cl.ON=c1cc(-c2cc3cccn3cn2)oc2ccc(OCCN3CCC(N4CCCCC4)CC3)cc12 [Example 116, dihydrochloride]
> 6.00

Can you handle Cl.ON=c1cc(-c2cc3cccn3cn2)oc2ccc(OCCc3ccncc3)cc12 [Example 136, hydrochloride] next?
> 5.30

Likewise for ON=c1cc(-c2cc3ccccc3cn2)oc2ccc(OC(F)(F)F)cc12 (mixture of isomers) ?
> 5.30

// query: "ON=c1cc(-c2cn3cccc3cn2)oc2ccc(OCCc3ccc(F)cc3)cc12"
> 6.00

Also Cl.ON=c1cc(-c2cn3cccc3cn2)oc2ccc(OCCN3CCOCC3)cc12 [Example 123, hydrochloride] ?
> 6.00

Please do the same for Cl.ON=c1cc(-c2cc3sccc3cn2)oc2ccc(OCCCc3ccncc3)cc12 [Example 134, hydrochloride] as well.
> 6.00

Same question for "ON=c1cc(-c2cc3ccn(O)c3cn2)oc2ccccc12" please.
> 5.30

---

Each record here notes measured melting point.

Known results for compounds:
COMPOUND | melting point
CN(C(=O)COc1ccc2oc(-c3cc4cccn4cn3)cc(=NO)c2c1)c1ccc(F)cc1 | 268 to 272 °C
ON=c1cc(-c2cc3c(cn2)ncn3Cc2ccccc2)oc2ccccc12 | 148 to 150 °C
ON=c1cc(-c2cc3ccccc3cn2)oc2cc(C#Cc3ccncc3)ccc12 (mixture of isomers) | 265 to 270 °C

Item under review: "Cl.O=S1(=O)CCN(CCOc2ccc3oc(-c4cc5sccc5cn4)cc(=NO)c3c2)CC1" . Reported melting point?
195 to 197 °C

---

Target: human mGluR4 transiently over-expressed in HEK-293 cells (Homo sapiens, UniProt Q14833)
Sequence (Q14833 33-912): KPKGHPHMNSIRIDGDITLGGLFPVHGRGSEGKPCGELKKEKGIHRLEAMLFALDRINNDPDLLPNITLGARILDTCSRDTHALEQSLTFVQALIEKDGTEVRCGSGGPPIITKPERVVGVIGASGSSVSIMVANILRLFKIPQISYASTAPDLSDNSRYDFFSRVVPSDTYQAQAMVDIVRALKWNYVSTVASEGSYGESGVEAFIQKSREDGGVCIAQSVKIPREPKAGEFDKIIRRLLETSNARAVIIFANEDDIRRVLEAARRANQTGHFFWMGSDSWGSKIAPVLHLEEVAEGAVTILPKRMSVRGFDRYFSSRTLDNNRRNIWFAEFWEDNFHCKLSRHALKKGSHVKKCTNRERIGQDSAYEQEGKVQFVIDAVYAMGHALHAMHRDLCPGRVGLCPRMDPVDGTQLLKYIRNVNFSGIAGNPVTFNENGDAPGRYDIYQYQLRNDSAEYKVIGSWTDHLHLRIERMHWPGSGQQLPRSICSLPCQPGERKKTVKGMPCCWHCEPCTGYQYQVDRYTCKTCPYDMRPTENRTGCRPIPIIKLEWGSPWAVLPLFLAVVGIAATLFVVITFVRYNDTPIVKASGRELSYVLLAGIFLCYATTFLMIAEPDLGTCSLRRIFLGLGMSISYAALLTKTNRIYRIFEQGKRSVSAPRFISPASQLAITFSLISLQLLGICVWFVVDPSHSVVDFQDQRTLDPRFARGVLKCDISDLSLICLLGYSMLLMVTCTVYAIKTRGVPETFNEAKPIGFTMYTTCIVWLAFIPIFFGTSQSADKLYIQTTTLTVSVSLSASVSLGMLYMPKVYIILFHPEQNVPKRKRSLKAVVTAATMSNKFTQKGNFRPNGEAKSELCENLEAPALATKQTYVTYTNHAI
Test: Human mGluR4 positive allosteric modulator evaluation using Ca++ functional assay
Conditions: HEK-293 cells co-transfected with hmGluR4 and chimeric G protein; EC10 glutamate; intracellular calcium (Fluo4AM); read-out: mean EC50 of agonist/positive allosteric modulator activity on mGluR4
Counter-ions that a name gives are not always drawn.
QUANTITY: EC50

Please review the entries below; each comes with its answer.
COMPOUND | QUANTITY | RESULT
CCN1CCN(CCOc2ccc3oc(-c4cc5cccn5cn4)cc(=NO)c3c2)CC1.Cl.Cl [Example 121, dihydrochloride] | EC50 | < 5000 nM
COCCOc1ccc2oc(-c3cc4ccccc4cn3)cc(=NO)c2c1 (mixture of isomers) | EC50 | < 1000 nM
CN(C)C1CCN(CCOc2ccc3oc(-c4cc5cccn5cn4)cc(=NO)c3c2)CC1.Cl.Cl [Example 99, dihydrochloride] | EC50 | < 1000 nM
ON=c1cc(-c2cc3cccn3cn2)oc2cc(OCCN3CCOCC3)ccc12 [Example 142, hydrochloride] | EC50 | < 1000 nM
ON=c1cc(-c2cc3cccn3cn2)oc2ccc(OCCc3ccc(C(F)(F)F)cc3)cc12 | EC50 | < 1000 nM

// returns reported EC50 for input Cl.ON=c1cc(-c2cc3cccn3cn2)oc2ccc(OCCN3CCOCC3)cc12 [Example 85, hydrochloride]
< 1000 nM

Item: COc1ccc2oc(-c3cc4ccccc4cn3)cc(=NO)c2c1 (mixture of isomers)
< 5000 nM

Now try Cl.ON=c1cc(-c2cc3sccc3cn2)oc2ccc(OCCN3CCCC(F)(F)C3)cc12 [Example 131, hydrochloride] .
< 1000 nM

Now the same for ON=c1cc(-c2cc3ccccc3cn2)oc2cc(/C=C/c3ccccc3)ccc12 (mixture of isomers)
< 5000 nM

Now this one: ON=c1cc(-c2cc3cccn3cn2)oc2ccc(OCCN3C[C@@H]4C[C@H]3CO4)cc12 [Example 111, hydrochloride]
< 1000 nM

Could you do the same for COCCCc1ccc2oc(-c3cc4cccn4cn3)cc(=NO)c2c1 (mixture of isomers) , please?
< 1000 nM

Same question, "Cn1ccc2cc(-c3cc(=NO)c4ccccc4o3)ncc21" this time
< 5000 nM

// query: ON=c1cc(-c2cc3ccccc3cn2)oc2cc(C#Cc3cccc(O)c3)ccc12 (mixture of isomers)
< 5000 nM

Next record, please: "O=C(COc1ccc2oc(-c3cc4cccn4cn3)cc(=NO)c2c1)Nc1ccc(F)cn1"
< 1000 nM

Try this compound too: Cl.ON=c1cc(-c2cc3cccn3cn2)oc2cccc(OCCN3CCOCC3)c12 [Example 156, hydrochloride]
< 1000 nM

---

Biological target: human mGluR4 transiently over-expressed in HEK-293 cells (Homo sapiens)
Assay: Human mGluR4 positive allosteric modulator evaluation using Ca++ functional assay
Settings: HEK-293 cells co-transfected with hmGluR4 and chimeric G protein; EC10 glutamate; intracellular calcium (Fluo4AM); read-out: mean EC50 of agonist/positive allosteric modulator activity on mGluR4
pEC50: −log10 of the molar value.
QUANTITY: pEC50

COMPOUND | pEC50
O=C(COc1ccc2oc(-c3cc4cccn4cn3)cc(=NO)c2c1)Nc1ccc(F)cc1 | > 6.00

Query the reported pEC50 for human mGluR4 transiently over-expressed in HEK-293 cells (Homo sapiens); item: "COCCOc1ccc2oc(-c3cc4cccn4cn3)cc(=NO)c2c1"
> 6.00

Consider next the compound Cc1ccc2cnc(-c3cc(=NO)c4ccccc4o3)cc2c1 (mixture of isomers) in the same way.
> 5.30

Proceed to "Cc1c(-c2cc3ccccc3cn2)oc2ccccc2c1=NO"
> 5.30

Another compound: "ON=c1cc(-c2cc3sccc3cn2)oc2ccccc12"
> 6.00

Ok, now "C=Cc1ccc2oc(-c3cc4ccccc4cn3)cc(=NO)c2c1"
> 5.30

---

Target: human mGluR4 transiently over-expressed in HEK-293 cells (Homo sapiens)
Construct: expressed in transfected cells; host or cells: HEK-293 cells, transient co-transfection by electroporation
Experiment: Human mGluR4 positive allosteric modulator evaluation using Ca++ functional assay
Type: cell-based
Details: HEK-293 cells co-transfected with hmGluR4 and chimeric G protein; EC10 glutamate; intracellular calcium (Fluo4AM); read-out: mean EC50 of agonist/positive allosteric modulator activity on mGluR4
Counter-ions that a name gives are not always drawn.
QUANTITY: EC50

Example entries and their recorded answers appear below.
COMPOUND | TESTED ON | EC50
CN(C)CCOc1ccc2oc(-c3cc4ccccc4cn3)cc(=NO)c2c1 (mixture of isomers) | human mGluR4 transiently over-expressed in HEK-293 cells (Homo sapiens) | < 5000 nM
COCCN(CCOC)CCOc1ccc2oc(-c3cc4cccn4cn3)cc(=NO)c2c1.Cl [Example 104, hydrochloride] | human mGluR4 transiently over-expressed in HEK-293 cells (Homo sapiens) | < 1000 nM
C[C@@H]1CN(CCOc2ccc3oc(-c4cc5cccn5cn4)cc(=NO)c3c2)C[C@H](C)O1 [Example 112, hydrochloride] | human mGluR4 transiently over-expressed in HEK-293 cells (Homo sapiens) | < 1000 nM

Quick check: EC50 of Cl.ON=c1cc(-c2cc3sccc3cn2)oc2ccc(OCCN3CCOCC3)cc12 [Example 127, hydrochloride] ?
< 1000 nM

And for COCCOc1ccc2c(=NO)cc(-c3cc4ccccc4cn3)oc2c1 (mixture of isomers) ?
< 5000 nM

Then Cl.ON=c1cc(-c2cc3sccc3cn2)oc2ccc(OCCn3ccnc3)cc12 [Example 129, hydrochloride] ?
< 1000 nM
